# Tested on: SK-MEL-5 melanoma
# METHOD NOTES: NCI tumour cell line growth inhibition, 48 h
Mark Condition met for reported TGI of 20 µM or greater; mark Condition not met for anything smaller.

{"columns": ["COMPOUND", "ANSWER LABEL"],
 "data": [
  ["COc1ccc2cc(C(=O)NCCCNC(=O)c3ccc4c(OC)c(OC)ccc4c3)ccc2c1OC", "Condition met"],
  ["Cc1nn(CN2CCN(C)CC2)c(=S)n1/N=C/c1ccc(-c2ccc(Cl)cc2Cl)o1", "Condition met"],
  ["CCOC(=O)C#Cc1c(C(=O)OCC)nnn1Cc1ccc(C(F)(F)F)cc1", "Condition met"],
  ["Clc1ccc(Cc2nc3cc(Cl)ccc3o2)cc1", "Condition met"],
  ["O=C(Nc1ccc(Cl)cc1)/C(=C(/[O-])c1ccc(Br)cc1)[n+]1cccc(-c2ccc(Cl)cc2)n1", "Condition met"],
  ["COc1ccc(N2CCOCC2)cc1", "Condition met"],
  ["O=Cc1cn(CCCCCn2cc(C=O)c3ccccc32)c2ccccc12", "Condition met"],
  ["O=C(O)CCC[C@]1(O)O[C@@]2(CCCC2=O)[C@]2(O)CCC[C@@]21O", "Condition met"],
  ["[O-][n+]1c2cc(CBr)c(CBr)cc2[n+]([O-])c2c(O)cccc21", "Condition not met"],
  ["Cc1cccc(-c2cc(=O)c3cc(C)c(C)c(C(=O)O)c3o2)c1", "Condition met"],
  ["CN(C)c1ccc(N=Nc2ccc(Br)cn2)c(O)c1", "Condition not met"],
  ["CCC(C)C1=NC(C(=O)N/C=C\\c2c[nH]c3cc(Br)c(Br)cc23)(C(C)C)NC1=O (stereo not given)", "Condition met"],
  ["C/C(=C1/N=C(c2cc([N+](=O)[O-])ccc2Cl)N(c2ccc(Br)cc2)C1=O)c1cc2ccccc2oc1=O", "Condition met"],
  ["O=C(O)c1c[nH]c2cc(OCc3ccccc3)ccc2c1=O", "Condition met"],
  ["C=C[C@]1(C)C[C@@H](OC(=O)CO)[C@@]2(C)[C@H](C)CC[C@]3(CCC(=O)[C@H]32)[C@@H](C)[C@@H]1O", "Condition met"],
  ["CC(=O)OCC1OC(n2c(-c3ccc(Cl)cc3)cc(-c3ccccc3)c(C#N)c2=S)C(OC(C)=O)C(OC(C)=O)C1OC(C)=O (stereo not given)", "Condition met"],
  ["COc1ccc(NC(=O)CC(=O)NN2C(=O)/C(=C/c3ccc(N(CCC#N)CCC#N)cc3C)N=C2/C=C\\c2ccccc2)cc1", "Condition met"],
  ["C=C(C)C12OC3(c4ccccc4)OC1C1C4OC4(CO)C(O)C4(O)C(=O)C(C)=CC4C1(O3)C(C)C2OC(=O)/C=C/C=C/c1ccccc1 (stereo not given)", "Condition not met"],
  ["CC(=O)O[C@H](C[C@@H](C)[C@H]1C(=O)[C@H](O)[C@@]2(C)C3CC[C@H]4C(C)(C)[C@@H](OC5OCC(O)C(O)C5O)CC[C@@]45C[C@@]35CC[C@]12C)[C@@H]1OC1(C)C (stereo not given in full)", "Condition met"],
  ["O=C1CC2(CCC(O)(c3ccco3)C(C(=O)c3ccco3)C2)C(=O)c2ccccc2N1 (stereo not given)", "Condition met"],
  ["O=C(O)CCC(=O)N1C/C(=C\\c2ccccc2)C(=O)/C(=C/c2ccccc2)C1", "Condition not met"],
  ["CC(=O)c1cccc(NC(=O)C(=O)C(C(=O)NN)c2ccccc2)c1 (stereo not given)", "Condition met"],
  ["COc1ccc(CCCNC(=O)Cc2ccccc2CO)cc1OC", "Condition met"],
  ["C#CCN(Cc1ccc2nc(-c3ccccc3)c(Cl)nc2c1)c1cc(OC)c(OC)c(OC)c1", "Condition met"],
  ["Cc1c2cccc(Sc3ccccc3)c2c2c3c(cccc13)[S+](c1ccccc1)C2 (stereo not given)", "Condition not met"],
  ["CC(=O)Nc1ccc(S(=O)(=O)/N=C2\\C=CC(=O)c3ccccc32)cc1", "Condition not met"],
  ["CC(CO)(CO)N1C(=O)C2C3c4ccccc4C(c4ccccc43)C2C1=O (stereo not given)", "Condition met"],
  ["Cc1ccccc1N1C(N)=C(C#N)C(C#N)(C#N)C1c1ccccc1 (stereo not given)", "Condition met"],
  ["CC1(C)C2CCC(=O)C1C(OCc1ccccc1)C2 (stereo not given)", "Condition met"],
  ["Cc1oc2nc[nH]c(=O)c2c1C(=O)/C=C/c1ccc(Br)cc1", "Condition not met"],
  ["CN1CCN(Cc2ccc(NC(=O)c3cncc(C#Cc4cnc5ccc(Cl)nn45)c3)cc2C(F)(F)F)CC1", "Condition not met"],
  ["C[C@@]1(O)C2C3CC4C5C3C1[C@](O)(C42)[C@H]5Br (stereo not given in full)", "Condition met"],
  ["O=C1OC(CC(=O)c2ccc(Cl)cc2)C(Cl)=C1Cl (stereo not given)", "Condition met"],
  ["COc1ccc2[nH]c(=O)c(/C=C/C(=O)c3ccccc3OC)cc2c1", "Condition not met"],
  ["COc1cc(Nc2cnc3ccc(N)cc3n2)cc(OC)c1OC", "Condition met"],
  ["O=C(O)C1(Cc2ccccc2)Cc2ccccc2C1", "Condition met"],
  ["COC(=O)CC(=O)OC", "Condition met"],
  ["NC(=O)c1ccc(NCC2=CC(=O)C=CC2=O)cc1", "Condition met"]
]}
